target.or.test.system: Collagenase 3 (Homo sapiens)
assay.method.text: Inhibition of APMA-activated recombinant human MMP13 expressed in mouse NS0 cells using Mca-PLGL-(DapDnp)-AR-NH2 as substrate by fluorescence assay
pIC50: −log10 of the molar value.
property.name: pIC50

COc1ccc(S(=O)(=O)N(CC(=O)NO)Cc2cccc(C(=O)O)c2)cc1 :: 9.52

----------
target.or.test.system: Disintegrin and metalloproteinase domain-containing protein 10 (Homo sapiens, UniProt O14672)
Sequence (O14672 whole entry, the tested form may be a part): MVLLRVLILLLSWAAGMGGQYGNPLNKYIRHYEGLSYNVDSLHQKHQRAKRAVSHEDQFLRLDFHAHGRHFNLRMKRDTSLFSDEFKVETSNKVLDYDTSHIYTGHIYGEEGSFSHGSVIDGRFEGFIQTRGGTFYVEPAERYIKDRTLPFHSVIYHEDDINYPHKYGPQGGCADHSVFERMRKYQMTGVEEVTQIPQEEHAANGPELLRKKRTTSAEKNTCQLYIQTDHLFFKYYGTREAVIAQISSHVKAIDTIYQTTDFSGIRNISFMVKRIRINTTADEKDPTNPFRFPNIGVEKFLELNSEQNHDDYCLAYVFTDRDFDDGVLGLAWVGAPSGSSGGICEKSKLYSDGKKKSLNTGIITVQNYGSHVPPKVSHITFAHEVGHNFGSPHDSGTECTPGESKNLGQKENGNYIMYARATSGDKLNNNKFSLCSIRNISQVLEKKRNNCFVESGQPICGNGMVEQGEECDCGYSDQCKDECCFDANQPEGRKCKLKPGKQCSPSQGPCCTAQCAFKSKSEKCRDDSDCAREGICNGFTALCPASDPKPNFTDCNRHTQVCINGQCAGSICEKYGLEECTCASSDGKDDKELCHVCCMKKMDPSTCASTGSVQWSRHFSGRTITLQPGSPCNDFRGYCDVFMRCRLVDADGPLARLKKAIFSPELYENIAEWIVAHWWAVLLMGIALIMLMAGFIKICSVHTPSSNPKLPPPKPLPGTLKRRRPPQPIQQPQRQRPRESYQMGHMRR
assay.method.text: Inhibition of recombinant human C-terminal His10-tagged ADAM10 expressed in baculovirus infected Sf21 cells using Abz-LANAVRSSSR-(DapDnp)-NH2 as substrate by fluorescence assay
pIC50: −log10 of the molar value.
property.name: pIC50

COc1ccc(S(=O)(=O)N(CC(=O)NO)Cc2cccc(C(=O)O)c2)cc1 :: 4.93

----------
target.or.test.system: Matrix metalloproteinase-9 (Homo sapiens)
Sequence (P14780 whole entry): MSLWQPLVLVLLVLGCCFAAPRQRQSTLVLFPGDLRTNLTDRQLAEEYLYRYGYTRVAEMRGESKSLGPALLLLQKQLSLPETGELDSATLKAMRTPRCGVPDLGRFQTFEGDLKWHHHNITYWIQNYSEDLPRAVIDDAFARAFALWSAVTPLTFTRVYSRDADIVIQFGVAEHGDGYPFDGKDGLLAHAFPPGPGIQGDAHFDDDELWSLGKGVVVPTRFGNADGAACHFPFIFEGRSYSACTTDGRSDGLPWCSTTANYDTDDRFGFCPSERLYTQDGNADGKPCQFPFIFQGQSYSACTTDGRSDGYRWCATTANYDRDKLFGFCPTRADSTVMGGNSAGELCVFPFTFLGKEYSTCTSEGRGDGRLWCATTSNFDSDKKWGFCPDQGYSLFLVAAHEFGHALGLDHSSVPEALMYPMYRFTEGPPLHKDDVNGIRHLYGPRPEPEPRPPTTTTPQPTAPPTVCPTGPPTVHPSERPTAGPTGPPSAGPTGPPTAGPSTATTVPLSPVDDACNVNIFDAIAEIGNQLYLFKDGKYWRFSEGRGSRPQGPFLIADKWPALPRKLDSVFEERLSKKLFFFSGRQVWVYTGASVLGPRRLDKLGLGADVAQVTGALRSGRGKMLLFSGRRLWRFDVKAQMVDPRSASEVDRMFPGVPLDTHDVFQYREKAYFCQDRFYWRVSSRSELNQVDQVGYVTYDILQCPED
assay.method.text: Inhibition of APMA-activated recombinant human MMP9 expressed in CHO cells using Mca-PLGL-(DapDnp)-AR-NH2 as substrate by fluorescence assay
pIC50: −log10 of the molar value.
property.name: pIC50

COc1ccc(S(=O)(=O)N(CC(=O)NO)Cc2cccc(C(=O)O)c2)cc1 :: 7.30

----------
Recorded IC50 for the following compounds
target.or.test.system: Meprin A subunit alpha (Homo sapiens)
Sequence (Q16819 whole entry): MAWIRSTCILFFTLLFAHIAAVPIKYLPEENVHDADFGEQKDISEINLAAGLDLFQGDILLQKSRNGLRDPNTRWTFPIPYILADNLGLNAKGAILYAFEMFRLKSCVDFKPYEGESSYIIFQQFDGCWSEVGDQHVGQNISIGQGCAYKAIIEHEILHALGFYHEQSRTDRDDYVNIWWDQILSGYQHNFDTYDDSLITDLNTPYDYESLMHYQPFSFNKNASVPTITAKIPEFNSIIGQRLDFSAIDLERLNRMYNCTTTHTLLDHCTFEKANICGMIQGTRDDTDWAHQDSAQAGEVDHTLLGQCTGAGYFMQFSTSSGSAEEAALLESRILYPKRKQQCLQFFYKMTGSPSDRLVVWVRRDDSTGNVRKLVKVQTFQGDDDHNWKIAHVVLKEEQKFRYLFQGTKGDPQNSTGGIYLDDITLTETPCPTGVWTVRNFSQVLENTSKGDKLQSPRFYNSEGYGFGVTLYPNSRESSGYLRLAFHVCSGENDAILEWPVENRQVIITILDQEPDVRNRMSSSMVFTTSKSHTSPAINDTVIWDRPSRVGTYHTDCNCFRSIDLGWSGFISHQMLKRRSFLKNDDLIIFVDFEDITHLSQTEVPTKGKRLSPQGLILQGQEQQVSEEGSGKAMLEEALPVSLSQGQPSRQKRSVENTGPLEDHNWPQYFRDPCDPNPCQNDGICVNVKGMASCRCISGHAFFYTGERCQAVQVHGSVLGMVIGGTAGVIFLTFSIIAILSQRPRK
assay.method.text: Inhibition of recombinant human meprin alpha expressed in S2 insect cells using Abz-YVADAPK(Dnp)G-OH as substrate by fluorescence assay
property.name: IC50 (µM)

COc1ccc(S(=O)(=O)N(CC(=O)NO)Cc2cccc(C(=O)O)c2)cc1 :: 3.29
O=C(CN(Cc1cccc(C(=O)O)c1)S(=O)(=O)c1cccc(C(=O)O)c1)NO :: 27.4

----------
target.or.test.system: Meprin A subunit beta (Homo sapiens)
assay.method.text: Inhibition of human meprin beta expressed in baculovirus infected BTI-TN-5B1-4 insect cells using N-benzoyl-L-tyrosylp-aminobenzoic acid as substrate
pKi: −log10 of the molar value.
property.name: pKi

CCCCC[C@H](CC(=O)NO)C(=O)N[C@H](C(=O)N1CCC[C@H]1CO)C(C)C :: 5.70

----------
target.or.test.system: Meprin A subunit beta (Homo sapiens, UniProt Q16820)
Sequence (Q16820 whole entry): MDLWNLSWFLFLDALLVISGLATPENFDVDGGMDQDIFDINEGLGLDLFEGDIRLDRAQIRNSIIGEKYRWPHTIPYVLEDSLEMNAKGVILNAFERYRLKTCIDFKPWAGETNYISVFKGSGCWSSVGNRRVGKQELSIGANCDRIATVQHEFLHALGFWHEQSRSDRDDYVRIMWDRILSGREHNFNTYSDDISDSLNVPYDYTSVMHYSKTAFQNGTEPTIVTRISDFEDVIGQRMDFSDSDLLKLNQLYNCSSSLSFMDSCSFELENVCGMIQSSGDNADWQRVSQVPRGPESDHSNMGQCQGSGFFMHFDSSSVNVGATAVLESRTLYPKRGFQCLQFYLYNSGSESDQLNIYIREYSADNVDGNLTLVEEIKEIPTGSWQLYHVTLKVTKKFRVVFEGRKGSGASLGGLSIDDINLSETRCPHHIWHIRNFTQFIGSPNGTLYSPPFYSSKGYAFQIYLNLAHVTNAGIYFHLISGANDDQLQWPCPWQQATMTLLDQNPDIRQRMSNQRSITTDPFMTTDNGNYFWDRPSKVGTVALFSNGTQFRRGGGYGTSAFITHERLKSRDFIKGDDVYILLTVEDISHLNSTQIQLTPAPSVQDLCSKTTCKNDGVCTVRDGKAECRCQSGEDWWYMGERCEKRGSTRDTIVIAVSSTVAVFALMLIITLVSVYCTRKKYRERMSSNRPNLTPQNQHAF
assay.method.text: Inhibition of recombinant human meprin beta expressed in yeast using Abz-YVAEAPK(Dnp)G-OH as substrate by fluorescence assay
pIC50: −log10 of the molar value.
property.name: pIC50

O=C(CNS(=O)(=O)c1cccc(C(=O)O)c1)NO :: 6.51
O=C(CNS(=O)(=O)c1cc(Cl)c(O)c(Cl)c1)NO :: 6.37
COc1ccc(S(=O)(=O)N(C)CC(=O)NO)cc1 :: 4.49
COc1ccc(S(=O)(=O)N(CCc2ccccc2)CC(=O)NO)cc1 :: 4.37
O=C(CCNS(=O)(=O)c1cccc(C(=O)O)c1)NO :: 6.66
O=C(CN(Cc1cccc(C(=O)O)c1)S(=O)(=O)c1ccc(C(=O)O)cc1)NO :: 6.49
O=C(O)Cc1ccc(S(=O)(=O)NCC(=O)NO)cc1 :: 5.30
O=C(CCNS(=O)(=O)c1cc(Cl)c(O)c(Cl)c1)NO :: 6.40
O=C(CNS(=O)(=O)c1ccc(Cl)cc1)NO :: 4.77
COc1ccc(S(=O)(=O)N(CC(=O)NO)Cc2ccc(C(=O)O)cc2)cc1 :: 6.01
O=C(CCNS(=O)(=O)c1ccc(C(=O)O)cc1)NO :: 6.47
